I'd be grateful if you could share measured GI50 for these entries.
system: M14; assay: NCI tumour cell line growth inhibition, 48 h
The source made the active and inactive calls. No stated cut-off is given here; in the data, active = GI50 up to about 1.1 µM and inactive = higher.

C=C(CN(C)C)C(=O)c1ccccc1C    18.1 µM (inactive)
O=C1CCC2(CCO1)OCCO2    > 100 µM (inactive)
Cc1cc(Cc2c(F)c(F)c(C(c3cc(C)no3)c3c(F)c(F)c(F)c(F)c3F)c(F)c2F)on1 (stereo not given)    24 µM (inactive)
O=c1nc(NC2CCCCO2)ccn1CCO (stereo not given)    > 100 µM (inactive)
Cc1ccc([C@H]2CC(=O)C[C@H](c3ccc(C)cc3)C23C(=O)c2ccccc2C3=O)cc1    27.8 µM (inactive)

Each compound below has a reported value. Please supply its GI50.
1. CCOC(=O)C#Cc1ccc(C#CC(=O)OCC)cc1
2. CC1CC2=C(S(=O)(=O)c3ccccc3)CC(S(=O)(=O)c3ccccc3)(S(=O)(=O)c3ccccc3)CC21 (stereo not given)
3. C[N+](C)(C)CC(=O)NC(=O)N/N=C\C(CC#N)CN(Cc1ccccc1)Cc1ccccc1 (stereo not given)
4. Cc1cc2c(c(/C=N/c3ccc(N(C)C)cc3)c1)OC1(C=C2)Oc2ccccc2C(=O)N1C (stereo not given)
5. Cc1nc2c(Br)cc(Br)cc2c(=O)n1-c1ccccc1N

OUT:
2.12 µM (inactive)
> 100 µM (inactive)
> 100 µM (inactive)
14.5 µM (inactive)
35.4 µM (inactive)

###

Please provide measured GI50 for the entries that follow.
tested on: M14; assay: NCI tumour cell line growth inhibition, 48 h
Calls of active or inactive are those of the source. Rule as the data show it: active = GI50 up to about 1.1 µM and inactive = higher.

The examples below pair each entry with its known result.
NNC(=O)CC(=O)Nc1ccccc1F    > 100 µM (inactive)
CC(=O)c1csc2c1C(=O)c1scc(C(C)=O)c1C2=O    1.63 µM (inactive)
CCCNC(=S)N/C=C1\C(=O)Nc2ccccc2C1=O    > 100 µM (inactive)
Cc1c(N/C=C(\C#N)C(=O)c2ccc(Cl)cc2)c(=O)n(-c2ccccc2)n1C    > 100 µM (inactive)
CCOc1ccc(NC(=O)/C(=C/c2ccccc2)C(C)=O)cc1    12.3 µM (inactive)

Value sought for every listed compound: GI50.
1. O=c1[nH]c2cc([N+](=O)[O-])c(Nc3c4ccccc4nc4ccccc34)c([N+](=O)[O-])c2[nH]1
2. COC(=O)NCCc1n[nH]c2c1C(=O)C=C(OC)C2=O
3. O=C(C(=O)n1ncc(Cl)c(Cl)c1=O)n1ncc(Cl)c(Cl)c1=O
4. CCn1c(C)nn2c(=O)c3ccccc3nc2c1=O
5. CCOC(=O)c1c(N2CCOCC2)[nH]c(=O)c(C(c2cccs2)c2c(O)c(C(=O)OCC)c(N3CCOCC3)[nH]c2=O)c1O

OUT:
["2.12 µM (inactive)", "19.7 µM (inactive)", "25.1 µM (inactive)", "> 100 µM (inactive)", "> 100 µM (inactive)"]

###

tested on: SF-295; experiment: NCI tumour cell line growth inhibition, 48 h
Calls of active or inactive are those of the source. Cut-off read from the data, not from the text of the source: active = GI50 up to about 1.1 µM and inactive = higher.
endpoint_label: GI50

Example entries and their recorded answers appear below.
COC1=CC(=O)C[C@@H](C)[C@]12Oc1c(Cl)c(OC)cc(OC)c1C2=O    21.8 µM (inactive)
O=C1CC[C@H](NC(=O)Cc2ccccc2)C(=O)N1 [ANTINEOPLASTON A10]    > 1250 µM (inactive)
CC1=CCC23C(C1)OC(Br)(C=CC2(C)O)C3(C)C (stereo not given)    > 100 µM (inactive)

For each of the items listed, what is its GI50?
1. Cc1cc([N+](=O)[O-])c(C)c2c1[nH]c1ccc(O)cc12
2. Cc1cc2c(c(/C=N/c3ccc(N(C)C)cc3)c1)OC1(C=C2)Oc2ccccc2C(=O)N1C (stereo not given)

OUT:
1: > 100 µM (inactive); 2: 21.2 µM (inactive)

###

test system: MDA-N; experiment: NCI tumour cell line growth inhibition, 48 h
Activity calls are given as the source filed them. Rule as the data show it: active = GI50 up to about 1.1 µM and inactive = higher.
endpoint_label: GI50

Observe how each entry below is paired with its result.
COP(=O)(OC)C(N)Cc1c[nH]c2ccccc12 (centres undefined)    > 100 µM (inactive)
COc1ccc(-c2cc(=O)c3c(OC)c(OC)c(OC)c(OC)c3o2)cc1OC    49.9 µM (inactive)

State recorded GI50 for all listed molecules.
1. Cc1c(CCN2CCOCC2)c(N2CCOCC2)n2c(nc3ccccc32)c1C#N
2. S=C1CCSc2c(ccc3ccccc23)N1
3. Cc1[nH]c2ncn(Nc3ccccc3)c(=N)c2c1Cc1ccccc1
4. Cc1ccc([S+](c2ccccc2)c2cc(C)ccc2C)cc1.O=C(OC(C(=O)[O-])C(OC(=O)c1ccccc1)C(=O)O)c1ccccc1 (centres undefined)
5. CC1=C2CN(C(=O)OCC(C)C)CCC2C2=C(C(=O)c3ccccc3C2=O)C1C (centres undefined)
6. O=C1N[C@H]2[C@H](O)[C@H](O)[C@@H](O)[C@H](O)[C@@H]2c2cc3c(c(O)c21)OCO3
7. O=C(/C=C\c1ccccc1)Oc1ccc(/C=C2\CCCCC2=O)cc1

OUT:
1: > 10 µM (inactive); 2: > 100 µM (inactive); 3: 0.191 µM (active); 4: 3.89 µM (inactive); 5: > 10 µM (inactive); 6: 0.0372 µM (active); 7: 33.3 µM (inactive)

###

Could you please report measured GI50 for the items listed next?
tested on: ACHN; test: NCI tumour cell line growth inhibition, 48 h
Activity calls are given as the source filed them. Rule as the data show it: active = GI50 up to about 1.1 µM and inactive = higher.

C=CC[C@@]1(OC(C)=O)C(=O)C(=O)OC1C1COC(C)(C)O1 (stereo partly drawn)    16.6 µM (inactive)
COc1ccc2c(c1)O[C@@H]1c3ccc(OC)cc3OC[C@H]21    52.4 µM (inactive)
CCNc1c(C(=O)N(CC)CC)c(=O)[nH]c2ncccc12    > 100 µM (inactive)

Field: GI50. Fill in for each record below.
1. CN(C)Cc1cc(C(F)(F)F)ccc1C(O)(c1ccccc1)c1ccccc1
2. Cc1ccc(/N=N/C(C(=O)c2ccccc2)C(=O)c2ccccc2)cc1
3. COc1cc(Cl)c(CC(=O)c2c[nH]c3ccccc23)cc1OC
4. COC(=O)C(CCCCN)NC(=O)C(CCCCN)NC(=O)C(CCCCN)NC(C)=O.Cc1ccc(C(=O)Nc2ccc(S(=O)(=O)O)c3cc(S(=O)(=O)O)cc(S(=O)(=O)O)c23)cc1NC(=O)c1cccc(NC(=O)Nc2cccc(C(=O)Nc3cc(C(=O)Nc4ccc(S(=O)(=O)O)c5cc(S(=O)(=O)O)cc(S(=O)(=O)O)c45)ccc3C)c2)c1

OUT:
1. 16.3 µM (inactive)
2. 26.6 µM (inactive)
3. 8.55 µM (inactive)
4. > 50 µM (inactive)

IN: Complete the entry with GI50 for "O=C(O)c1c(Br)c(Br)c(Br)c(Br)c1C1c2ccc(O)cc2Oc2cc(O)ccc21"
OUT: > 100 µM (inactive)

###

tested on: SK-MEL-2; experiment: NCI tumour cell line growth inhibition, 48 h
Activity calls are given as the source filed them. No stated cut-off is given here; in the data, active = GI50 up to about 1.1 µM and inactive = higher.
endpoint_label: GI50

NCC1OC(OC2C(N)CC(N)C(O)C2OC2OC(CO)C(O)C2O)C(N)C(O)C1O (stereo unspecified)    > 50 µM (inactive)

Dear colleague, could you send me GI50 for each of the items below? Thanks.
1. Cc1cc(C)c([O-])c(-[n+]2c(-c3ccccc3)cc(-c3ccccc3)cc2-c2ccccc2)c1
2. Oc1ccc2c(c1)OCC1(O)Cc3cc(O)c(O)cc3C21 (stereo unspecified)
3. Cn1cnc([N+](=O)[O-])c1[Se]c1nc(N)nc2c1ncn2C1OC(CO)C(O)C1O (stereo unspecified)
4. O=C1CCC2(CCO1)OCCO2
5. O=C(/C=C1\NC(=O)c2ccccc2N1)c1ccncc1
6. COc1ccc2[nH]cc(CCNC(=O)[C@](O)(Cc3cn(C)c4ccccc34)[C@@]3(O)OCC(O)C3O)c2c1 (stereo partly specified)
7. COC(=O)C(F)C(Br)C(=O)OC (stereo unspecified)
8. O=C(N/C=C1\C(=O)Oc2ccccc2C1=O)Nc1ccccc1

OUT:
1. 2.88 µM (inactive)
2. 27.1 µM (inactive)
3. > 100 µM (inactive)
4. > 100 µM (inactive)
5. > 100 µM (inactive)
6. > 100 µM (inactive)
7. 16.1 µM (inactive)
8. 18.5 µM (inactive)

Below are 2 compounds. Give each one its GI50.
1. CC1(C2(C)OC(=O)c3ccccc32)OC(=O)c2ccccc21 (stereo unspecified)
2. COc1ccc2cc3c4cc5c(cc4cc[n+]3cc2c1OC)OCO5

OUT:
> 100 µM (inactive)
22.8 µM (inactive)

###

system: M19-MEL; experiment: NCI tumour cell line growth inhibition, 48 h
Activity calls are given as the source filed them. Cut-off read from the data, not from the text of the source: active = GI50 up to about 1.1 µM and inactive = higher.
What GI50 was measured for each of the following?

C[N+](C)(C)CC(=O)N/N=C(/C(=O)Nc1ccc(Br)cc1)C1C(=O)NC(=O)NC1=O    > 100 µM (inactive)
COc1ccc(C/C(=N/O)C(=O)NCCc2cc(Br)c(OCCCN(C)C)c(Br)c2)cc1Br    18.2 µM (inactive)
CN(C)C=C1C(=O)N(C)C(=O)N(C)C1=O    > 100 µM (inactive)

For the 8 compounds below, give their GI50 values.
1. CC(=O)OC1CC2CCN3C(=O)c4cc5c(cc4[C@H](C1OC(C)=O)C23)OCO5 (stereo not given in full)
2. Cc1cc(=O)oc2c1cc1ccc3cccc4ccc2c1c34
3. COc1cc2c(c(O)c1O)-c1ccc(OC)c(=O)cc1C(NC(C)=O)CC2 (stereo not given)
4. O=C1[C@@H]2C(c3ccccc3Br)=NO[C@@H]2C(=O)N1c1ccc(Cc2ccc(N3C(=O)[C@H]4C(c5ccccc5Br)=NO[C@H]4C3=O)cc2)cc1
5. Cc1cc([N+](=O)[O-])c(C)c2c1[nH]c1ccc(O)cc12
6. Nc1ccc2nc(Nc3ccc(F)cc3)cnc2c1
7. CCCC(=O)Oc1ccc(/C=N/NC(N)=S)nc1
8. O=c1nc(NC2CCCCO2)ccn1CCO (stereo not given)

OUT:
> 100 µM (inactive)
> 100 µM (inactive)
6.98 µM (inactive)
> 100 µM (inactive)
> 100 µM (inactive)
> 100 µM (inactive)
> 100 µM (inactive)
> 100 µM (inactive)

Fill in GI50 for each of the 4 compounds listed.
1. OC(C1CO1)C(O)C1CO1 (stereo not given)
2. CCOC(=O)C(C(O)c1ccc([N+](=O)[O-])cc1)P(=O)(OCC)OCC (stereo not given)
3. Cn1c(=O)c(C#N)c(O)c2cc3ccccc3nc21
4. C(=C\c1c2oc(-c3ccccc3)cc(-c3ccccc3)c-2c2ccccc12)/C=C1\c2ccccc2-c2c(-c3ccccc3)cc(-c3ccccc3)[o+]c21.[O-][Cl+3]([O-])([O-])[O-]

OUT:
74.8 µM (inactive)
77.6 µM (inactive)
> 100 µM (inactive)
> 100 µM (inactive)

I'm hoping you can list GI50 for every compound here, please.
1. COC(=O)c1ccc(C=C(C#N)C#N)cc1
2. CC(C)c1ccc(O)c(Cc2cc(C(C)C)cc(Cc3cc(C(C)C)ccc3O)c2O)c1
3. O=C(CC1(O)C(=O)Nc2c(Cl)ccc(Cl)c21)c1ccco1 (stereo not given)
4. CCOC(=O)C12CCCC1(O)N(NC(N)=O)C(C)=C2C(=O)OC (stereo not given)
5. O=C(Cc1ccc(F)cc1)NC1=C(Cl)C(=O)c2ccccc2C1=O
6. CCn1c(C)nn2c(=O)c3ccccc3nc2c1=O
7. COC(=O)CC(C(C(=O)OC)C(=O)OC)N1C(=O)OCC1c1ccccc1 (stereo not given)

OUT:
1: 25.2 µM (inactive); 2: 1.61 µM (inactive); 3: 2.31 µM (inactive); 4: > 100 µM (inactive); 5: 3.74 µM (inactive); 6: > 100 µM (inactive); 7: > 100 µM (inactive)

Every entry's value here was drawn from ChEMBL document CHEMBL1201862.
